test system: 5-lipoxygenase; test: Resident murine peritoneal macrophage assay, LTC4 (5-lipoxygenase); assay type: cell-based, murine (female Swiss Webster mice); details: Peritoneal macrophage; 0.5 μM; mouse peritoneal macrophages
Reported inhibition at 0.5 µM values follow for various compounds
RECORDED METRIC: inhibition at 0.5 µM

INSERT INTO measurements (molecule_smiles, recorded_metric, value) VALUES
  ('CN1CC(O)=C(C(=O)CCC2CCCCCCCCCCC2)C1=O', 'inhibition at 0.5 µM', '66.2%'),
  ('O=C(CCC1CCCCCCCCCCC1)C1=C(O)CSC1=O', 'inhibition at 0.5 µM', '76.1%'),
  ('O=C(NCCC1CCCCCCCCCCC1)C1=C(O)COC1=O', 'inhibition at 0.5 µM', '25.9%'),
  ('O=C(CCC1CCCCCCCCCCC1)C1=C(O)COC1=O', 'inhibition at 0.5 µM', '29%');

Measured values drawn from patent US5468774A for this set.
